I'd be grateful if you could share measured pIC50 for these entries.
Answer as the number alone; pIC50 is minus log10 of concentration in mol/L.

Observed pIC50 on CRTh2 receptor (Homo sapiens, UniProt Q9Y5Y4), entry COc1ccc(S(=O)(=O)c2ccccc2Cc2c3c(n(CC(=O)O)c2C)CCNC3=O)cc1 [Example 15] , equals 8.41

Observed pIC50 on CRTh2 receptor (Homo sapiens, UniProt Q9Y5Y4), entry Cc1c(Cc2ccccc2S(=O)(=O)c2ccc(F)cc2)c2c(n1CC(=O)O)CCNC2=O [Example 4] , equals 8.49

Observed pIC50 on CRTh2 receptor (Homo sapiens, UniProt Q9Y5Y4), entry Cc1c(Cc2ccccc2S(=O)(=O)c2ccccc2)c2c(n1CC(=O)O)CCN(Cc1ccccc1)C2=O [Example 36] , equals 8.82

Observed pIC50 on CRTh2 receptor (Homo sapiens, UniProt Q9Y5Y4), entry Cc1c(Cc2ccc(C(=O)O)cc2S(=O)(=O)c2ccccc2)c2c(n1CC(=O)O)CCNC2=O [Example 29] , equals 7.74
